// values below are reported MIC
system: Salmonella enterica serotype Heidelberg isolates; assay: MIC of antibiotics, antibiotic resistance profile of Salmonella enterica isolates; type: cell-based; settings: 10th of 29 isolates (ID 0)
parameter: MIC (µg/mL)

>>> result_number("CN(C)C1C(O)=C(C(N)=O)C(=O)C2(O)C(O)=C3C(=O)c4c(O)cccc4C(C)(O)C3CC12 (stereo not shown)")
256
>>> result_number("CC[C@H]1OC(=O)[C@H](C)[C@@H](O[C@H]2C[C@@](C)(OC)[C@@H](O)[C@H](C)O2)[C@H](C)[C@@H](O[C@@H]2O[C@H](C)C[C@H](N(C)C)[C@H]2O)[C@](C)(O)C[C@@H](C)C(=O)[C@H](C)[C@@H](O)[C@]1(C)O")
512
